Overview of recorded selectivity ratio for various molecules
- testDescription: Therapeutic index, ratio of hemolytic activity in human erythrocytes assessed as lowest concentration required for hemolysis to MIC for Escherichia coli
- Assay type: cell-based
- experimentalContext: read-out: TI
Where a SMILES comes first, the peptide text is derived from it.

molecule	selectivity ratio
CC(C)C[C@H](NC(=O)[C@H](CO)NC(=O)[C@@H]1CCCN1C(=O)[C@H](CO)NC(=O)[C@H](CC(C)C)NC(=O)[C@@H](N)CCCCN)C(=O)NCC(=O)N1CCC[C@H]1C(=O)N[C@H](C(=O)N[C@@H](CO)C(=O)N[C@@H](CCCCN)C(=O)NCC(=O)N[C@@H](CCCCN)C(=O)N[C@@H](CC(C)C)C(=O)N[C@@H](CC(C)C)C(=O)N[C@@H](C)C(=O)NCC(=O)N[C@@H](CCC(N)=O)C(=O)N[C@@H](CCCNC(=N)N)C(N)=O)C(C)C (H-KLSPSLGPVSKGKLLAGQR-NH2)	9.7
CC(C)C[C@H](NC(=O)[C@H](CC(C)C)NC(=O)[C@@H](NC(=O)[C@@H]1CCCN1C(=O)[C@H](CCCCN)NC(=O)[C@@H](N)[C@@H](C)O)[C@@H](C)O)C(=O)NCC(=O)N[C@@H](CC(C)C)C(=O)N1CCC[C@H]1C(=O)N[C@@H](CC(C)C)C(=O)NCC(=O)N[C@@H](C)C(=O)NCC(=O)N1CCC[C@H]1C(=O)N[C@@H](C)C(=O)N[C@@H](C)C(=O)NCC(=O)N1CCC[C@H]1C(=O)NCC(=O)N[C@@H](CCCCN)C(=O)N[C@@H](CCCNC(=N)N)C(N)=O (H-TKPTLLGLPLGAGPAAGPGKR-NH2)	40
CC(C)C[C@H](NC(=O)CNC(=O)[C@H](C)NC(=O)[C@H](CC(C)C)NC(=O)[C@H](CC(C)C)NC(=O)[C@@H](NC(=O)[C@H](CCCCN)NC(=O)[C@H](CC(C)C)NC(=O)[C@H](CC(C)C)NC(=O)[C@H](C)NC(=O)[C@@H]1CCCN1C(=O)[C@H](CC(C)C)NC(=O)[C@H](C)NC(=O)[C@@H](NC(=O)CNC(=O)[C@H](CC(C)C)NC(=O)[C@@H](N)CCCNC(=N)N)[C@@H](C)O)[C@@H](C)O)C(=O)N[C@@H](CC(N)=O)C(=O)NCC(N)=O (H-RLGTALPALLKTLLAGLNG-NH2)	1.5

====

- testDescription: Therapeutic index, ratio of hemolytic activity in human erythrocytes assessed as lowest concentration required for hemolysis to MIC for Staphylococcus aureus
- Format: cell-based
- experimentalContext: read-out: TI
Where a SMILES comes first, the peptide text is derived from it.
Overview of recorded selectivity ratio for various molecules
readoutLabel: selectivity ratio

molecule	readoutLabel	assayResult
CC(C)C[C@H](NC(=O)[C@H](CO)NC(=O)[C@@H]1CCCN1C(=O)[C@H](CO)NC(=O)[C@H](CC(C)C)NC(=O)[C@@H](N)CCCCN)C(=O)NCC(=O)N1CCC[C@H]1C(=O)N[C@H](C(=O)N[C@@H](CO)C(=O)N[C@@H](CCCCN)C(=O)NCC(=O)N[C@@H](CCCCN)C(=O)N[C@@H](CC(C)C)C(=O)N[C@@H](CC(C)C)C(=O)N[C@@H](C)C(=O)NCC(=O)N[C@@H](CCC(N)=O)C(=O)N[C@@H](CCCNC(=N)N)C(N)=O)C(C)C (H-KLSPSLGPVSKGKLLAGQR-NH2)	selectivity ratio	4.9
CC(C)C[C@H](NC(=O)[C@H](CC(C)C)NC(=O)[C@@H](NC(=O)[C@@H]1CCCN1C(=O)[C@H](CCCCN)NC(=O)[C@@H](N)[C@@H](C)O)[C@@H](C)O)C(=O)NCC(=O)N[C@@H](CC(C)C)C(=O)N1CCC[C@H]1C(=O)N[C@@H](CC(C)C)C(=O)NCC(=O)N[C@@H](C)C(=O)NCC(=O)N1CCC[C@H]1C(=O)N[C@@H](C)C(=O)N[C@@H](C)C(=O)NCC(=O)N1CCC[C@H]1C(=O)NCC(=O)N[C@@H](CCCCN)C(=O)N[C@@H](CCCNC(=N)N)C(N)=O (H-TKPTLLGLPLGAGPAAGPGKR-NH2)	selectivity ratio	80
CC(C)C[C@H](NC(=O)CNC(=O)[C@H](C)NC(=O)[C@H](CC(C)C)NC(=O)[C@H](CC(C)C)NC(=O)[C@@H](NC(=O)[C@H](CCCCN)NC(=O)[C@H](CC(C)C)NC(=O)[C@H](CC(C)C)NC(=O)[C@H](C)NC(=O)[C@@H]1CCCN1C(=O)[C@H](CC(C)C)NC(=O)[C@H](C)NC(=O)[C@@H](NC(=O)CNC(=O)[C@H](CC(C)C)NC(=O)[C@@H](N)CCCNC(=N)N)[C@@H](C)O)[C@@H](C)O)C(=O)N[C@@H](CC(N)=O)C(=O)NCC(N)=O (H-RLGTALPALLKTLLAGLNG-NH2)	selectivity ratio	1.5
